In this section we review reported protein stability index values for a set of sequences.
test: protein stability index of a GFP-peptide fusion (yeast GPS) (PSI 1-4); higher = more stable; sorted into four equal gates, so the index is relative within each strain; settings: pdr5∆
# output: bare number, no unit

Some solved entries appear below for comparison.
What value of measured protein stability index is listed for PQFDSTQPKSSSSMDMQ [SSN3] ?
3

What value of measured protein stability index is listed for PEQGEEPMKQLNATKIS [YAR002W/NUP60] ?
2.2

What value of measured protein stability index is listed for GKHSIGLIWYLLAREVL [RPS0A] ?
1.87

What value of measured protein stability index is listed for LEGNDIHALAAKLLQEN [FAS1] ?
2.95

What value of measured protein stability index is listed for NPHDGVNSIALFVGTDR [RPN14] ?
2.42

Further cases:
What value of measured protein stability index is listed for GWFHSHPGYDCWLSNID [RRI1] ?
3.05

What value of measured protein stability index is listed for ELSIRDVTHTLGMLDDN [SMC4] ?
3.04

---

test: protein stability index of a GFP-peptide fusion (yeast GPS) (PSI 1-4); higher = more stable; sorted into four equal gates, so the index is relative within each strain; conditions: ubr1∆
endpoint: protein stability index
# output: bare number, no unit

What value of measured protein stability index is listed for ITPMNDDQCMLITTYSK [SIN4] ?
1.99

What value of measured protein stability index is listed for RIGVLQARMMQQQSADH [NSL1] ?
2.96

What value of measured protein stability index is listed for SSFSKKTLTEEVTKSSH [YIL149C/MLP2] ?
3.09

What value of measured protein stability index is listed for KPLGPCDVFWVQKDTAI [POP1] ?
2.96

---

In this section we review reported protein stability index values for a set of sequences.
assay: protein stability index of a GFP-peptide fusion (yeast GPS) (PSI 1-4); higher = more stable; sorted into four equal gates, so the index is relative within each strain; details: ubr1∆
# output: bare number, no unit

Some solved entries appear below for comparison.
What value of measured protein stability index is listed for IDEIAYLFHNDRIIHTW [ECM29] ?
1.66

What value of measured protein stability index is listed for RDMIMKRNSDKVEYKIV [ITC1] ?
1.31

What value of measured protein stability index is listed for PGEYITTIKAIFDGNYG [YMR129W/POM152] ?
2.95

What value of measured protein stability index is listed for YQDIEGGFEDVEEYTWS [RPB2] ?
3.44

What value of measured protein stability index is listed for QLKFEGFALNSDIVFIH [BRR2] ?
1.81

What value of measured protein stability index is listed for LRAAQQQWGNDFYKRDP [FAS2] ?
2.71

What value of measured protein stability index is listed for SKTENVRRLEAQRNALN [RPT6] ?
2.88

What value of measured protein stability index is listed for EKELKIFTDAGRVYRPL [RPB2] ?
3.34

Further cases:
What value of measured protein stability index is listed for MSGTTKRLNGKRKYLDI [SSN2] ?
3.55

What value of measured protein stability index is listed for SQWNDSSIDKIEDRDFL [SIR3] ?
3.32

What value of measured protein stability index is listed for SPYNADFDGDEMNLHVP [RPO21] ?
3.1

What value of measured protein stability index is listed for VMNTKLLQEGGSLSGNS [ESC2] ?
3.07

What value of measured protein stability index is listed for REDIDDPLAKVNVLLQS [BRR2] ?
2.96

What value of measured protein stability index is listed for LNTLNNVVEIWVFSYLR [SIR3] ?
1.58
